tested on: Aspergillus niger; assay: Antifungal activity against Aspergillus niger MTCC 281 after 24 to 72 hrs by broth dilution method; format: functional
// reported MIC for each item listed
Give just the numeric value; mg/L need not be written.

Answered examples (6):
compound=O=c1c(C(=S)Nc2ccccc2)coc2cc(Cl)ccc12 measured_attribute=MIC observed_result=80
compound="O=c1c(C2N=C(c3ccccc3)SS2)coc2ccccc12 (centres undefined)" measured_attribute=MIC observed_result=90
compound=OC(Cn1cncn1)(Cn1cncn1)c1ccc(F)cc1F measured_attribute=MIC observed_result=49
compound=O=c1c(C(=S)Nc2ccccc2)coc2ccccc12 measured_attribute=MIC observed_result=90
compound="O=c1c(C2N=C(c3ccccc3)SS2)coc2cc(Cl)c(F)cc12 (centres undefined)" measured_attribute=MIC observed_result=90
compound=O=c1c(C(=S)Nc2ccccc2)coc2ccc(F)cc12 measured_attribute=MIC observed_result=120

# compound O=c1c(C2N=C(c3ccccc3)SS2)coc2ccc(F)cc12 (centres undefined) ; its MIC = 50

# compound O=c1c(C2N=C(c3ccccc3)SS2)coc2ccc(Cl)cc12 (centres undefined) ; its MIC = 125

# compound Cc1ccc2occ(C3N=C(c4ccccc4)SS3)c(=O)c2c1 (centres undefined) ; its MIC = 150
